- Test system: HeLa Kyoto;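 further: synchronized HeLa Kyoto cells (double thymidine block for G1/S, nocodazole release for mitosis), protein amounts in NP-40 versus SDS lysates quantified by mass spectrometry, three biological replicates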
- Assay Protocol: solubility change mitosis vs G1/S (difference of NP-40 vs SDS log2 ratios) (log2 ratio difference); higher = more soluble in mitosis
Exercise: for every item that follows, state its recorded solubility change mitosis (log2).
One number for each entry.

Reference set, count: 3
MPRKRKCDLRAVRVGLLLGGGGVYGSRFRFTFPGCRALSPWRVRVQRRRCEMSTMFADTLLIVFISVCTALLAEGITWVLVYRTDKYKRLKAEVEKQSKKLEKKKETITESAGRQQKKKIERQEEKLKNNNRDLSMVRMKSMFAIGFCFTALMGMFNSIFDGRVVAKLPFTPLSYIQGLSHRNLLGDDTTDCSFIFLYILCTMSIRQNIQKILGLAPSRAATKQAGGFLGPPPPSGKFS [TMCO1]
0.0683
MAAAPLKVCIVGSGNWGSAVAKIIGNNVKKLQKFASTVKMWVFEETVNGRKLTDIINNDHENVKYLPGHKLPENVVAMSNLSEAVQDADLLVFVIPHQFIHRICDEITGRVPKKALGITLIKGIDEGPEGLKLISDIIREKMGIDISVLMGANIANEVAAEKFCETTIGSKVMENGLLFKELLQTPNFRITVVDDADTVELCGALKNIVAVGAGFCDGLRCGDNTKAAVIRLGLMEMIAFARIFCKGQVSTATFLESCGVADLITTCYGGRNRRVAEAFARTGKTIEELEKEMLNGQKLQGPQTSAEVYRILKQKGLLDKFPLFTAVYQICYESRPVQEMLSCLQSHPEHT [GPD1L]
-0.126
MRLLPRLLLLLLLVFPATVLFRGGPRGLLAVAQDLTEDEETVEDSIIEDEDDEAEVEEDEPTDLVEDKEEEDVSGEPEASPSADTTILFVKGEDFPANNIVKFLVGFTNKGTEDFIVESLDASFRYPQDYQFYIQNFTALPLNTVVPPQRQATFEYSFIPAEPMGGRPFGLVINLNYKDLNGNVFQDAVFNQTVTVIEREDGLDGETIFMYMFLAGLGLLVIVGLHQLLESRKRKRPIQKVEMGTSSQNDVDMSWIPQETLNQINKASPRRLPRKRAQKRSVGSDE [SSR1]
0.0174

Query: Request the reported solubility change mitosis (log2) associated with `ARHGAP4`
Reply: -0.000167
